Assay: ATG_VDRE_CIS: Attagene CIS-FACTORIAL HepG2 Assay for human Vitamin D Receptor Element (VDRE) (AID 2282968)
Conditions: HepG2 VDRE cis-reporter transcription, actives raise or lower the signal
Experimental: ATG_CIS is a cell-based, multiplexed-readout assay that uses HepG2, a human liver cell line, with measurements taken at 24 hours after chemical dosing in a 24-well plate.ATG_VDRE_CIS is one of 52 assay component(s) measured or calculated from the ATG_CIS assay. […] This assay endpoint, ATG_VDRE_CIS, was analyzed with bidirectional fitting relative to DMSO as the negative control and baseline of activity. […]
The source made the active and inactive calls. How the source made its calls: active means hit-call score of the fitted dose curve at least 0.9, where 1 is the maximum; inactive means score below 0.9.
Outcome codes: 1 (yes) for active, 0 (no) for inactive

1) CCOC(=O)COc1cc(-n2ncc(C(F)(F)F)c(C)c2=O)c(F)cc1Cl: 0 (no)
2) CCCCOC(=O)[C@@H](C)Oc1ccc(Oc2ccc(C(F)(F)F)cn2)cc1: 0 (no)
3) CCCCCOC(=O)COc1cc(N2C(=O)C3=C(CCCC3)C2=O)c(F)cc1Cl: 0 (no)
4) CC1(C)C(C=C(Cl)Cl)C1C(=O)OCc1cccc(Oc2ccccc2)c1 (stereo unspecified): 1 (yes)
5) COC(=O)c1cccc(C)c1S(=O)(=O)NC(=O)Nc1nc(OCC(F)(F)F)nc(N(C)C)n1: 0 (no)
6) O=C(c1ccc(O)cc1O)c1ccc(O)cc1O: 0 (no)
7) CCSC(=O)N(CC(C)C)CC(C)C: 0 (no)
8) CSC(=O)c1cccc2nnsc12: 0 (no)
9) COC(=O)c1ccccc1S(=O)(=O)NC(=O)Nc1nc(OC(F)F)cc(OC(F)F)n1: 0 (no)
10) C=CCOC(Cn1ccnc1)c1ccc(Cl)cc1Cl (stereo unspecified): 1 (yes)
11) CCOC(=O)C(C)Oc1ccc(Oc2nc3ccc(Cl)cc3o2)cc1 (stereo unspecified): 0 (no)
